PROTOCOL DESCRIPTION: qHTS for differential inhibitors of proliferation of Plasmodium falciparum line 3D7 (AID 1876)
RUN CONDITIONS: P. falciparum 3D7 proliferation inhibition; series mostly up to 28.7 µM
Results filed as inconclusive are left out. The source made the active and inactive calls. Calls come from the whole dose curve; as a rule, active = well fitted curve in the direction sought with a large enough effect; inconclusive = small, poorly fitted or top-dose-only effect, or another doubt; inactive = no such curve, though single readings can be large or run the other way.
Outcomes: YES for active, NO for inactive

COMPOUND	LABEL VALUE
O=Nc1c(-c2c(O)[nH]c3cc(Br)ccc23)[nH]c2ccccc12	YES
O=C(c1ccccc1)c1ccc2n1CCC2C(=O)O (stereo not given)	NO
COc1ccc2cc([C@H](C)C(=O)O)ccc2c1	NO
CC1(C)C(=O)N(CCN2CCC(C(=O)c3ccc(F)cc3)CC2)c2ccccc21	YES
O=C1c2ccccc2-c2n[nH]c3cccc1c23	YES

###

Catalogue of viability (% of control) values
PROTOCOL DESCRIPTION: High-throughput drug toxicity screening in the BPDCN cell line Cal-1 (AID 1224825);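 note: cells exposed to compounds for 48 h; 100% = DMSO and 0% = bortezomib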
RUN CONDITIONS: Cal-1 BPDCN cell viability, qHTS; at 45.8 µM (top of the series) unless noted
READOUT: viability (% of control) (%)

COMPOUND	READING
CC1=C(C)C(=O)C(C(CCCCCC(=O)O)c2ccccc2)=C(C)C1=O (stereo not drawn)	115
Oc1ccc(-c2nc(-c3ccc(F)cc3)c(-c3ccncc3)[nH]2)cc1	54.8
Cc1cc(=O)c2c(O)c3c(O)cc(=O)c4c3c3c(cc(O)c1c23)C(C)(C)C=4O	94.6
Cc1nc(Nc2ncc(C(=O)Nc3c(C)cccc3Cl)s2)cc(N2CCN(CCO)CC2)n1	11.7
CC(C)[N+]1(C)[C@@H]2CC[C@H]1CC(OC(=O)C(CO)c1ccccc1)C2 (stereo partly drawn)	31.8
COc1ccc2cc([C@H](C)C(=O)O)ccc2c1	135
COc1cc(OC)c(C(=O)CCCN2CCCC2)c(OC)c1	101
Cc1c(C(=O)NN2CCCCC2)nn(-c2ccc(Cl)cc2Cl)c1-c1ccc(Cl)cc1	13.1
Nc1nc(Cl)nc2c1ncn2[C@H]1C[C@H](O)[C@@H](CO)O1	12
Cc1nc2n(c(=O)c1CCN1CCC(c3noc4cc(F)ccc34)CC1)CCCC2	103
Cc1ncc([N+](=O)[O-])n1CC(C)O (stereo not drawn)	98.4
Cc1cc(=O)oc2cc(O)ccc12	104
Nc1ncn([C@H]2C[C@H](O)[C@@H](CO)O2)c(=O)n1	47.1

###

PROTOCOL DESCRIPTION: Quantitative High-Throughput drug screen in 47 multiple myeloma cell lines against the NCATS MIPE library collection: JIM3_ECACC cell viability assay (AID 1918963; note: nearly all actives have a fitted effect of over 35% in size)
RUN CONDITIONS: JIM3 myeloma viability, CellTiter-Glo ATP, 48 h; series mostly up to 45.8 µM
Records with an inconclusive call do not appear. Activity calls are given as the source filed them. Calls come from the whole dose curve; as a rule, active = well fitted cell-killing curve with a large enough effect; inconclusive = small, poorly fitted or top-dose-only effect; inactive = no such curve, though single readings can be large or run the other way. Non-standard residues stand in square brackets, D forms with d. Residues, ends and D or L forms follow the SMILES beside them. *: point of attachment. Sta = CC(C)C[C@H](N)[C@@H](O)CC(=O)O; Isovaleryl = CC(C)CC(=O)*
Outcomes: T = active, F = inactive

MOLECULE	LABEL VALUE
c1cnc2cc3c(cc2n1)C1CNCC3C1	F
COc1c2occc2cc2ccc(=O)oc12	F
CC(C)CC(=O)N[C@H](C(=O)N[C@H](C(=O)N[C@@H](CC(C)C)[C@@H](O)CC(=O)N[C@@H](C)C(=O)N[C@@H](CC(C)C)[C@@H](O)CC(=O)O)C(C)C)C(C)C (Isovaleryl-VV[Sta]A[Sta]-OH)	F
CC(C)(S)[C@@H](N)C(=O)O	F
CN(C)c1ccc2nc3ccc(=[N+](C)C)cc-3sc2c1	T
Nc1nc(N)c(N=O)c(OCC2CCCCC2)n1	T
CCOC(=O)c1c(C)n(C)c2ccc(O)cc12	F
CCN(CC)CCOc1ccc(Nc2ncc3cc(-c4c(Cl)cccc4Cl)c(=O)n(C)c3n2)cc1	T
